assay: in vitro; conditions: rat, hepatocytes
In this section we review reported hepatocyte CLint values for a set of compounds.

compound: CS(=O)(=O)c1ccc(C(=O)NC[C@@H](O)CN2CCC(Oc3ccc(Cl)c(Cl)c3)CC2)s1
relation: =
hepatocyte CLint / µL/min/1e6 cells: 3
//
compound: CS(=O)(=O)c1ccccc1C(=O)NCC(O)CNC1CCN(Cc2ccc(Cl)c(Cl)c2)CC1 (stereo unspecified)
relation: =
hepatocyte CLint / µL/min/1e6 cells: 4
//
compound: COc1cc(C(=O)NC[C@@H](O)CN2CCC(Oc3ccc(Cl)c(Cl)c3)CC2)ccc1N
relation: =
hepatocyte CLint / µL/min/1e6 cells: 6
//
compound: O=C(NC[C@@H](O)CN1CCC(Oc2ccc(Cl)c(Cl)c2)CC1)c1cn2cc(F)ccc2n1
relation: =
hepatocyte CLint / µL/min/1e6 cells: 7
//
compound: CS(=O)(=O)c1ccccc1C(=O)NC[C@@H](O)CN1CCC(Oc2ccc(Cl)c(Cl)c2)CC1
relation: <
hepatocyte CLint / µL/min/1e6 cells: 3
//
compound: N#Cc1cccc(OC[C@@H](O)CNC2CCN(Cc3ccc(Cl)c(Cl)c3)CC2)c1
relation: =
hepatocyte CLint / µL/min/1e6 cells: 7
